target: complex of human CDK4 and cyclin D3 (Homo sapiens); construct: made in house; host or cells: insect cells, co-infected with baculovirus; test: Inhibition of CDK4/cyclin D retinoblastoma kinase activity (D-type cyclin is D3); assay type: biochemical; conditions: superscript a: D-type cyclin is D3; apparent Ki; read-out: Ki CDK 4/D
Sequence (P11802 whole entry): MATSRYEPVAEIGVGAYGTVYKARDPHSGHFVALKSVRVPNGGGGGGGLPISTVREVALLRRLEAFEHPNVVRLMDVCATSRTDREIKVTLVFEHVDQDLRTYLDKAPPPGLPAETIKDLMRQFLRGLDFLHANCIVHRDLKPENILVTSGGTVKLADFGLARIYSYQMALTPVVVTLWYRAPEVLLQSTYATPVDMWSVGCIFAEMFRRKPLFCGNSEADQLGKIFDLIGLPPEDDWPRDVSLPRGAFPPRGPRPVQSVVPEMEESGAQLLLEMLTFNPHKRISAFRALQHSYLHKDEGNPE
Sequence (P30281 whole entry partner): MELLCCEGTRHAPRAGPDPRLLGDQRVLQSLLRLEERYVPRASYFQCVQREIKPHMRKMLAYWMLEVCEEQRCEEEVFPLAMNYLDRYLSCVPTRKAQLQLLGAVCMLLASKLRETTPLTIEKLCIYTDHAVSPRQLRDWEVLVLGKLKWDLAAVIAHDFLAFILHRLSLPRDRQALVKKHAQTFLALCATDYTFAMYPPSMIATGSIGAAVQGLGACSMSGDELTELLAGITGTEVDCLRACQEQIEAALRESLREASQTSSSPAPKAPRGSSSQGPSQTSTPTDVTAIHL
pKi: −log10 of the molar value. Where a name gives a salt, the structure may show the parent alone.
Parameter pKi: see the listing below.
quantity: pKi

[[record]]
molecule = "Nc1nc(Nc2ccc(N3CCSCC3)cc2)sc1C(=O)c1c(F)cccc1F [C(119)]"
quantity = "pKi"
value_reported = 7.62

[[record]]
molecule = "Nc1nc(Nc2ccc(Sc3ncc(C(F)(F)F)cc3Cl)cc2)sc1C(=O)c1ccccc1[N+](=O)[O-] [C(25)]"
quantity = "pKi"
value_reported = 5.89

[[record]]
molecule = "COC(=O)c1sc(Nc2ccc3nc[nH]c3c2)nc1N [A(12)]"
quantity = "pKi"
value_reported = 5.03

[[record]]
molecule = "Nc1nc(Nc2ccc(S(N)(=O)=O)cc2)sc1C(=O)c1ccc(C(=O)O)cc1 [E(2)]"
quantity = "pKi"
value_reported = 5.93

[[record]]
molecule = "Cc1cccc(C)c1C(=O)c1sc(Nc2ccc(N3CCOCC3)cc2)nc1N [C(62)]"
quantity = "pKi"
value_reported = 7.14

[[record]]
molecule = "CC(=O)N1CCN(c2ccc(Nc3nc(N)c(C(=O)c4cc(C)sc4C)s3)cc2)CC1 [C(112)]"
quantity = "pKi"
value_reported = 7.64

[[record]]
molecule = "Nc1nc(Nc2ccc3nc[nH]c3c2)sc1C(=O)c1c(Cl)cc(Br)c(N)c1Cl [C(91)]"
quantity = "pKi"
value_reported = 8.17

[[record]]
molecule = "CCNc1nc(N)c(C(=O)c2ccccc2)s1 [I(5)*]"
quantity = "pKi"
value_reported = 5.96

[[record]]
molecule = "Cc1cccc(-c2ccccc2)c1C(=O)c1sc(Nc2ccc3nc[nH]c3c2)nc1N [C(67)]"
quantity = "pKi"
value_reported = 5.50

[[record]]
molecule = "CC(=O)N1CCN(c2ccc(Nc3nc(N)c(C(=O)c4c(F)cccc4F)s3)cc2)CC1 [C(111)]"
quantity = "pKi"
value_reported = 7.68

[[record]]
molecule = "Nc1nc(Nc2ccc3nc[nH]c3c2)sc1C(=O)c1sc(Br)cc1Br [C(72)]"
quantity = "pKi"
value_reported = 7.87

[[record]]
molecule = "CN(C)CCN(C)c1ccc(Nc2nc(N)c(C(=O)c3c(F)cccc3F)s2)cc1 [C(110)]"
quantity = "pKi"
value_reported = 7.85

[[record]]
molecule = "Nc1nc(Nc2ccc(N3CCNC(=O)C3)cc2)sc1C(=O)c1c(F)cccc1F [C(120)]"
quantity = "pKi"
value_reported = 7.96

[[record]]
molecule = "COc1cc(C(=O)c2sc(Nc3ccccc3)nc2N)cc(OC)c1OC [I(16)]"
quantity = "pKi"
value_reported = 5.73

[[record]]
molecule = "Cc1ccc(C(=O)c2sc(Nc3cccnc3)nc2N)c(C)c1 [C(21)]"
quantity = "pKi"
value_reported = 6.93

[[record]]
molecule = "Cc1ccsc1C(=O)c1sc(Nc2ccc3nc[nH]c3c2)nc1N [C(19)]"
quantity = "pKi"
value_reported = 7.80

[[record]]
molecule = "CCOC(=O)c1ccc(Nc2nc(N)c(C(=O)c3c(Cl)cccc3Cl)s2)cc1 [C(56)]"
quantity = "pKi"
value_reported = 6.71

[[record]]
molecule = "Nc1nc(Nc2ccc(N3CCOCC3)cc2)sc1C(=O)c1c(Cl)cncc1Cl [C(69)]"
quantity = "pKi"
value_reported = 7.70

[[record]]
molecule = "CC(C)c1ccc(Nc2nc(N)c(C(=O)c3ccccc3[N+](=O)[O-])s2)cc1 [C(15)]"
quantity = "pKi"
value_reported = 7.24

[[record]]
molecule = "Cc1ccc(Nc2nc(N)c(C(=O)c3ccc(C)cc3C)s2)cc1 [A(14)]"
quantity = "pKi"
value_reported = 6.74

[[record]]
molecule = "Nc1nc(Nc2ccc(N3CCNCC3)cc2)sc1C(=O)c1c(Cl)cc(Cl)cc1Cl [J(1)]"
quantity = "pKi"
value_reported = 8.64

[[record]]
molecule = "COc1ccccc1C(=O)c1sc(Nc2ccc3nc[nH]c3c2)nc1N [C(32)]"
quantity = "pKi"
value_reported = 7.03

[[record]]
molecule = "Cc1c(C(=O)c2sc(Nc3ccc(N(C)C)cc3)nc2N)sc2ccccc12 [C(7)]"
quantity = "pKi"
value_reported = 6.29

[[record]]
molecule = "CC(C)(C)OC(=O)N1CCN(c2ccc(Nc3nc(N)c(C(=O)c4c(Cl)cccc4Cl)s3)cc2)CC1 [C(105)]"
quantity = "pKi"
value_reported = 7.22

[[record]]
molecule = "Nc1nc(Nc2ccc3nc[nH]c3c2)sc1C(=O)c1cc(Cl)sc1Cl [C(93)]"
quantity = "pKi"
value_reported = 6.55

[[record]]
molecule = "CN(C)S(=O)(=O)c1ccc(Nc2nc(N)c(C(=O)c3c(F)cccc3F)s2)cc1 [C(109)]"
quantity = "pKi"
value_reported = 7.08

[[record]]
molecule = "Nc1nc(Nc2ccc3nc[nH]c3c2)sc1C(=O)[C@@H]1CCCN1C(=O)OCc1ccccc1 [C(64)]"
quantity = "pKi"
value_reported = 4.36

[[record]]
molecule = "Cc1ccc(C(=O)c2sc(Nc3ccc(S(N)(=O)=O)cc3)nc2N)c(C)c1 [C(35)]"
quantity = "pKi"
value_reported = 7.96

[[record]]
molecule = "Nc1nc(Nc2ccc(N3CCOCC3)cc2)sc1C(=O)c1c(Cl)cccc1Cl [C(55)]"
quantity = "pKi"
value_reported = 8.07

[[record]]
molecule = "Nc1ccc(Cl)c(C(=O)c2sc(Nc3ccc(N4CCNCC4)cc3)nc2N)c1Cl [H(2), Trihydrochloride]"
quantity = "pKi"
value_reported = 8.44

[[record]]
molecule = "CC(=O)N1CCN(c2ccc(Nc3nc(N)c(C(=O)c4c(Cl)cccc4Cl)s3)cc2)CC1 [C(97)]"
quantity = "pKi"
value_reported = 8.07

[[record]]
molecule = "COc1ccc(C(=O)c2sc(Nc3ccc(S(N)(=O)=O)cc3)nc2N)c(OC)c1 [C(33)]"
quantity = "pKi"
value_reported = 7.24

[[record]]
molecule = "Nc1nc(Nc2ccc(S(N)(=O)=O)cc2)sc1C(=O)c1c(Cl)cc(C(F)(F)F)cc1Cl [C(38)]"
quantity = "pKi"
value_reported = 7.60

[[record]]
molecule = "Nc1nc(Nc2ccc3nc[nH]c3c2)sc1C(=O)c1c(Cl)cncc1Cl [C(63)]"
quantity = "pKi"
value_reported = 7.77

[[record]]
molecule = "COc1ccc(C(=O)c2sc(Nc3ccc(C)cc3)nc2N)c(OC)c1 [A(13)]"
quantity = "pKi"
value_reported = 6.60

[[record]]
molecule = "CN1CCN(c2ccc(Nc3nc(N)c(C(=O)c4c(Cl)cncc4Cl)s3)cc2)CC1 [C(70)]"
quantity = "pKi"
value_reported = 8.55

[[record]]
molecule = "Cc1cccc([N+](=O)[O-])c1C(=O)c1sc(Nc2ccc3nc[nH]c3c2)nc1N [C(61)]"
quantity = "pKi"
value_reported = 6.92

